Just for reference, patent US20240368283A1 is where these values come from.

molecular target: cyPD1 (cynomolgus monkey); test: biosensor kinetics (BLI type); antibody captured on anti-human Fc biosensor, PD-1 in solution
MEASURED_METRIC: kon (M⁻¹ s⁻¹)
# output: bare number, implied unit M⁻¹ s⁻¹

[
  {
    "BINDER": "TA289 (antibody, V domains shown, Fc SEQ 587, CL SEQ 416) VH: QVTLKESGPGILQPSQTLSLTCSFSGFSLSTFGMGVGWIRQPSGKGLEWLAHIWWDDDKYYNPALKSRLTISKDTSKNQVFLKIANVDTADTATYYCARIRGTWWYFDVWGTGTTVTVSS VL: QAVVTQESALTTSPGETVTLTCRSSTGAVTTSNYANWVQEKPDHLFTGLIGGTNNRAPGVPARFSGSLIGDKAALTITGAQTEDEAIYFCALWYSNQFIFGSGTKVTVL",
    "UNIT_INFO": "M⁻¹ s⁻¹",
    "VALUE_OBSERVED": "1.6e+06"
  },
  {
    "BINDER": "TA104 (antibody, V domains shown, Fc SEQ 587, CL SEQ 416) VH: DVQLVESGGGVARPGESLRLSCAASGFTFRDYDMGWVRQAPGEGLEWVSSISVSGTTYYADSVKGRFTISRDNSENTLYLQMNSLTAEDTAVYYCGREDTLFHYWGLGTLVTVSS VL: QSVLTQPPSASGTPGQRVTISCSGSTSNIGTRYVYWYQQLPGTAPKLLIYKNLQRPSGVPDRFSGSKSGTSASLAISGLQSEDEADYYCAAWDERLNGWVFGGGTKLTVL",
    "UNIT_INFO": "M⁻¹ s⁻¹",
    "VALUE_OBSERVED": 160000
  },
  {
    "BINDER": "TA101 (antibody, V domains shown, Fc SEQ 587, CL SEQ 416) VH: DVQLVESGGGVARPGEFLRLSCAASGFTFRDYDMGWVRQAPGEGLEWVSSISVSGTTYYADSVKGRFTISRDNSENTLYLQMNSLTAEDTAVYYCGREDTLFHYWGLGTLVTVSS VL: QSVLTQPPSASGTPGQRVTISCSGSTSNIGTRYVYWYQQLPGTAPKLLIYKNLQRPSGVPDRFSGSKSGTSASLAISGLQSEDEADYYCAAWDERLNGWVFGGGTKLTVL",
    "UNIT_INFO": "M⁻¹ s⁻¹",
    "VALUE_OBSERVED": 120000
  },
  {
    "BINDER": "TA102 (antibody, V domains shown, Fc SEQ 587, CL SEQ 416) VH: DVQLVESGGGVVRPGESLRLSCAASGFTFRNYDMTWVRQAPGEGLEWVATISGTDDTTYYADSVKGRATISRDNSNNTLYLRLFSLRAEDTAIYYCAREASNSFIDYWGLGTLVTVSS VL: QSVLTQPPSASGTPGQRVTISCSGSSSNIGRRYVYWYQQLPGTAPKLLIYRNFERPSGVPDRFSGSKSGTSASLAISGLQSEDEADYYCASWDESLNGWVFGGGTKLTVL",
    "UNIT_INFO": "M⁻¹ s⁻¹",
    "VALUE_OBSERVED": "1.4e+06"
  },
  {
    "BINDER": "TA275 (antibody, V domains shown, Fc SEQ 587, CL SEQ 416) VH: QVTLKESGPGILQPSQTLSLTCSFSGFSLSTFGMGVGWIRQPSGKGLEWLAHIWWDDDKYYNPALKSRLTISKDTSKNQVFLKIANVDTADTATYYCARIPTRYWYFDVWGTGTTVTVSS VL: QAVVTQESALTTSPGETVTLTCRSSTGAVTTSNYANWVQEKPDHLFTGLIGGTNNRAPGVPARFSGSLIGDKAALTITGAQTEDEAIYFCALWYSTHYVFGGGTKVTVL",
    "UNIT_INFO": "M⁻¹ s⁻¹",
    "VALUE_OBSERVED": 200000
  }
]

Switching to the query record.
Task: Entry under review: TA132 (antibody, V domains shown, Fc SEQ 587, CL SEQ 416) VH: EVQLLESGGAFVQPGGSLRLSCAASGFTFSDYYMSWVRQAPGKGLEWVSVISNSGGSTYYTDSVKGRFTISRDNSKNTLYLQINSLRAEDTAVYYCTKDIGMTYFDYWGQGTLVTVSS VL: QSVLTQPPSASGAPGQRVTISCSGSYSNIGNSYVSWYQQLPGTAPKLLIYLNSQRPSGVPDRFSGSKSGTSASLAISGLQSEDEADYYCAAWDDLNVWVFGGGTKLTVL . Reported kon?
Result: 149000
